Species on record: Rattus norvegicus
Test: Open TG-GATES - Regimen: Single
Type: toxicity, organism-based, Sprague-Dawley
Parameters: regimen Single, gender Male, age 6 weeks
Settings: in vivo, po, 300 mg/kg, 3 h, tissue Blood, route gavage, dose level Middle
outcome_measure: PT
A bare number is not enough; add the unit after it.

The examples below pair each entry with its known result.
Exercise: Consider the molecule "Cc1nnc2n1-c1ccc(Cl)cc1C(c1ccccc1Cl)=NC2" . State its measured PT.
Solution: 13.4 s

Exercise: Consider the molecule "CN/C(=N/CCSCc1nc[nH]c1C)NC#N" . State its measured PT.
Solution: 12.8 s

Exercise: Consider the molecule "COC(=O)C1=C(C)NC(C)=C(C(=O)OC)C1c1ccccc1[N+](=O)[O-]" . State its measured PT.
Solution: 15.1 s

Exercise: Consider the molecule "O=C(OC[C@H]1O[C@@H](OC(=O)c2cc(O)c(O)c(OC(=O)c3cc(O)c(O)c(O)c3)c2)[C@H](OC(=O)c2cc(O)c(O)c(OC(=O)c3cc(O)c(O)c(O)c3)c2)[C@@H](OC(=O)c2cc(O)c(O)c(OC(=O)c3cc(O)c(O)c(O)c3)c2)[C@@H]1OC(=O)c1cc(O)c(O)c(OC(=O)c2cc(O)c(O)c(O)c2)c1)c1cc(O)c(O)c(OC(=O)c2cc(O)c(O)c(O)c2)c1" . State its measured PT.
Solution: 11.6 s

Continuing:
Exercise: Consider the molecule "CNC(=C[N+](=O)[O-])NCCSCc1ccc(CN(C)C)o1" . State its measured PT.
Solution: 12.5 s

* * *

Property: BUN; scope: individual compounds
Species: Rattus norvegicus
Assay: Open TG-GATES - Regimen: Single
Type: toxicity, organism-based, Sprague-Dawley
Set-up: regimen Single, gender Male, age 6 weeks
Details: in vivo, po, 1000 mg/kg, 24 h, tissue Plasma, route gavage, dose level High
A bare number is not enough; add the unit after it.

Exercise: Consider the compound "O=C(OC[C@H]1O[C@@H](OC(=O)c2cc(O)c(O)c(OC(=O)c3cc(O)c(O)c(O)c3)c2)[C@H](OC(=O)c2cc(O)c(O)c(OC(=O)c3cc(O)c(O)c(O)c3)c2)[C@@H](OC(=O)c2cc(O)c(O)c(OC(=O)c3cc(O)c(O)c(O)c3)c2)[C@@H]1OC(=O)c1cc(O)c(O)c(OC(=O)c2cc(O)c(O)c(O)c2)c1)c1cc(O)c(O)c(OC(=O)c2cc(O)c(O)c(O)c2)c1" . State its measured BUN.
Solution: 18 mg/dL

--- query ---
Exercise: Consider the compound "COC(=O)C1=C(C)NC(C)=C(C(=O)OC)C1c1ccccc1[N+](=O)[O-]" . State its measured BUN.
Solution: 10.8 mg/dL

* * *

Organism: Rattus norvegicus
Experiment: Open TG-GATES - Regimen: Single
Type: toxicity, organism-based, Sprague-Dawley
Set-up: regimen Single, gender Male, age 6 weeks
Conditions: in vivo, po, 1000 mg/kg, 3 h, tissue Kidney, route gavage, dose level High
outcome_measure: KIDNEY_R (g)
Write it as a number; the unit g goes unstated.

Exercise: Consider the compound "Cc1nnc2n1-c1ccc(Cl)cc1C(c1ccccc1Cl)=NC2" . State its measured KIDNEY_R.
Solution: 0.9

Exercise: Consider the compound "COC(=O)C1=C(C)NC(C)=C(C(=O)OC)C1c1ccccc1[N+](=O)[O-]" . State its measured KIDNEY_R.
Solution: 0.9

--- query ---
Exercise: Consider the compound "CN/C(=N/CCSCc1nc[nH]c1C)NC#N" . State its measured KIDNEY_R.
Solution: 1

* * *

Species: Rattus norvegicus
Experiment: Open TG-GATES - Regimen: Single
Assay type: toxicity, organism-based, Sprague-Dawley
Set-up: regimen Single, gender Male, age 6 weeks
Details: in vivo, po, 0 mg/kg, 9 h, tissue Blood, route gavage, dose level Control
outcome_measure: Mono (%)
Write it as a number; the unit % goes unstated.

The examples below pair each entry with its known result.
Exercise: Consider the molecule NC1=NC(=O)C(c2ccccc2)O1 (centres undefined) [PEMOLINE] . State its measured Mono.
Solution: 3.2

Exercise: Consider the molecule CCOc1ccc(NC(C)=O)cc1 [PHENACETIN] . State its measured Mono.
Solution: 2.6

Exercise: Consider the molecule O=C(OC[C@H]1O[C@@H](OC(=O)c2cc(O)c(O)c(OC(=O)c3cc(O)c(O)c(O)c3)c2)[C@H](OC(=O)c2cc(O)c(O)c(OC(=O)c3cc(O)c(O)c(O)c3)c2)[C@@H](OC(=O)c2cc(O)c(O)c(OC(=O)c3cc(O)c(O)c(O)c3)c2)[C@@H]1OC(=O)c1cc(O)c(O)c(OC(=O)c2cc(O)c(O)c(O)c2)c1)c1cc(O)c(O)c(OC(=O)c2cc(O)c(O)c(O)c2)c1 [TANNIC ACID] . State its measured Mono.
Solution: 8

Exercise: Consider the molecule CS(=O)(=O)O.Cc1ccc(NC(=O)c2ccc(CN3CCN(C)CC3)cc2)cc1Nc1nccc(-c2cccnc2)n1 [IMATINIB MESYLATE] . State its measured Mono.
Solution: 2.2

--- query ---
Exercise: Consider the molecule CCCc1cc(=O)[nH]c(=S)[nH]1 [PROPYLTHIOURACIL] . State its measured Mono.
Solution: 6.2

* * *

Organism: Rattus norvegicus
Test: Open TG-GATES - Regimen: Single
Type: toxicity, organism-based, Sprague-Dawley
Set-up: regimen Single, gender Male, age 6 weeks
Settings: in vivo, po, 1000 mg/kg, 9 h, tissue Liver, route gavage, dose level High
Property: LIVER; scope: individual molecules
Write it as a number; the unit g goes unstated.

Exercise: Consider the molecule "CNC(=C[N+](=O)[O-])NCCSCc1ccc(CN(C)C)o1" . State its measured LIVER.
Solution: 9.2

Exercise: Consider the molecule "COC(=O)C1=C(C)NC(C)=C(C(=O)OC)C1c1ccccc1[N+](=O)[O-]" . State its measured LIVER.
Solution: 7.1

Exercise: Consider the molecule "O=C(OC[C@H]1O[C@@H](OC(=O)c2cc(O)c(O)c(OC(=O)c3cc(O)c(O)c(O)c3)c2)[C@H](OC(=O)c2cc(O)c(O)c(OC(=O)c3cc(O)c(O)c(O)c3)c2)[C@@H](OC(=O)c2cc(O)c(O)c(OC(=O)c3cc(O)c(O)c(O)c3)c2)[C@@H]1OC(=O)c1cc(O)c(O)c(OC(=O)c2cc(O)c(O)c(O)c2)c1)c1cc(O)c(O)c(OC(=O)c2cc(O)c(O)c(O)c2)c1" . State its measured LIVER.
Solution: 7.1

Exercise: Consider the molecule "Cc1nnc2n1-c1ccc(Cl)cc1C(c1ccccc1Cl)=NC2" . State its measured LIVER.
Solution: 7.6

--- query ---
Exercise: Consider the molecule "CN/C(=N/CCSCc1nc[nH]c1C)NC#N" . State its measured LIVER.
Solution: 8.9

* * *

Organism: Rattus norvegicus
Assay: Open TG-GATES - Regimen: Single
Assay type: toxicity, organism-based, Sprague-Dawley
Design: regimen Single, gender Male, age 6 weeks
Conditions: in vivo, po, 100 mg/kg, 9 h, tissue Plasma, route gavage, dose level Low
Property: GLC; scope: individual compounds
Write it as a number; the unit mg/dL goes unstated.

Exercise: Consider the compound "O=C(OC[C@H]1O[C@@H](OC(=O)c2cc(O)c(O)c(OC(=O)c3cc(O)c(O)c(O)c3)c2)[C@H](OC(=O)c2cc(O)c(O)c(OC(=O)c3cc(O)c(O)c(O)c3)c2)[C@@H](OC(=O)c2cc(O)c(O)c(OC(=O)c3cc(O)c(O)c(O)c3)c2)[C@@H]1OC(=O)c1cc(O)c(O)c(OC(=O)c2cc(O)c(O)c(O)c2)c1)c1cc(O)c(O)c(OC(=O)c2cc(O)c(O)c(O)c2)c1" . State its measured GLC.
Solution: 190.2

--- query ---
Exercise: Consider the compound "Cc1nnc2n1-c1ccc(Cl)cc1C(c1ccccc1Cl)=NC2" . State its measured GLC.
Solution: 181.8

* * *

Species: Rattus norvegicus
Assay: Open TG-GATES - Regimen: Single
Format: toxicity, organism-based, Sprague-Dawley
Set-up: regimen Single, gender Male, age 6 weeks
Settings: in vivo, po, 300 mg/kg, 24 h, tissue Blood, route gavage, dose level Middle
Property: APTT; scope: individual compounds
Write it as a number; the unit s goes unstated.

The examples below pair each entry with its known result.
Exercise: Consider the compound "Cc1nnc2n1-c1ccc(Cl)cc1C(c1ccccc1Cl)=NC2" . State its measured APTT.
Solution: 28.1

Exercise: Consider the compound "COC(=O)C1=C(C)NC(C)=C(C(=O)OC)C1c1ccccc1[N+](=O)[O-]" . State its measured APTT.
Solution: 16.6

Exercise: Consider the compound "CNC(=C[N+](=O)[O-])NCCSCc1ccc(CN(C)C)o1" . State its measured APTT.
Solution: 23.9

Exercise: Consider the compound "CN/C(=N/CCSCc1nc[nH]c1C)NC#N" . State its measured APTT.
Solution: 19.1

Continuing:
Exercise: Consider the compound "O=C(OC[C@H]1O[C@@H](OC(=O)c2cc(O)c(O)c(OC(=O)c3cc(O)c(O)c(O)c3)c2)[C@H](OC(=O)c2cc(O)c(O)c(OC(=O)c3cc(O)c(O)c(O)c3)c2)[C@@H](OC(=O)c2cc(O)c(O)c(OC(=O)c3cc(O)c(O)c(O)c3)c2)[C@@H]1OC(=O)c1cc(O)c(O)c(OC(=O)c2cc(O)c(O)c(O)c2)c1)c1cc(O)c(O)c(OC(=O)c2cc(O)c(O)c(O)c2)c1" . State its measured APTT.
Solution: 15.9
